Values were extracted from the supplement of paper PMC10307832.

test system: HCC-366; assay: relative viability (nuclei count vs DMSO), 5 days (fraction); higher = more cells survive; conditions: first compound 2 µM

[
  {
    "molecule": "COCC1(CO)C(=O)C2CCN1CC2 (stereo not given) [PRIMA-1MET] + NC(=O)Nc1cc(-c2cccc(F)c2)sc1C(=O)N[C@H]1CCCNC1 [AZD7762] (partner 0.2 µM)",
    "relative viability": 0.223
  },
  {
    "molecule": "COCC1(CO)C(=O)C2CCN1CC2 (stereo not given) [PRIMA-1MET] + COc1cccc2cc(-c3nc([C@H]4CC[C@H](C(=O)O)CC4)n4ncnc(N)c34)[nH]c12 [OSI-027] (partner 0.5 µM)",
    "relative viability": 0.303
  },
  {
    "molecule": "COCC1(CO)C(=O)C2CCN1CC2 (stereo not given) [PRIMA-1MET] + O=C(CCCCCCC(=O)Nc1ccccc1)NO [Vorinostat] (partner 1 µM)",
    "relative viability": 0.249
  },
  {
    "molecule": "COCC1(CO)C(=O)C2CCN1CC2 (stereo not given) [PRIMA-1MET] + CC(=O)c1c(C)c2cnc(Nc3ccc(N4CCNCC4)cn3)nc2n(C2CCCC2)c1=O [Palbociclib] (partner 0.5 µM)",
    "relative viability": 0.382
  },
  {
    "molecule": "COCC1(CO)C(=O)C2CCN1CC2 (stereo not given) [PRIMA-1MET] + Nc1ncn([C@H]2C[C@H](O)[C@@H](CO)O2)c(=O)n1 [Decitabine] (partner 2 µM)",
    "relative viability": 0.294
  }
]
